Each recorded value in this set is attributed to paper PMC6987146.

Test system: HIV-1V13-03413B
protocolSummary: Inhibition of multi-drug-resistant clinical isolate HIV-1 V13-03413B in PBMCs
Assay type: cell-based, HIV-type 1
reportedConditions: Human immunodeficiency virus 1, PBMC, read-out: IC50 value, HIV-1 V13-03413B
readoutType: pIC50
Entry type: numeric. Quantity: pIC50, the -log10 of concentration in molar units.

Looking up COc1oc(C2C/C(=C/C(C)=C/c3ccc(C(F)(F)F)cc3)CO2)c(C)c(=O)c1C (stereo not shown) , I found its pIC50 recorded as 8.38
